study.target: GlyT1 (Homo sapiens, UniProt P48067)
Construct: Human placental choriocarcinoma cells endogenously expressing GlyT1; endogenous in cells; host or cells: JAR human placental choriocarcinoma cells
Sequence (P48067 1-706): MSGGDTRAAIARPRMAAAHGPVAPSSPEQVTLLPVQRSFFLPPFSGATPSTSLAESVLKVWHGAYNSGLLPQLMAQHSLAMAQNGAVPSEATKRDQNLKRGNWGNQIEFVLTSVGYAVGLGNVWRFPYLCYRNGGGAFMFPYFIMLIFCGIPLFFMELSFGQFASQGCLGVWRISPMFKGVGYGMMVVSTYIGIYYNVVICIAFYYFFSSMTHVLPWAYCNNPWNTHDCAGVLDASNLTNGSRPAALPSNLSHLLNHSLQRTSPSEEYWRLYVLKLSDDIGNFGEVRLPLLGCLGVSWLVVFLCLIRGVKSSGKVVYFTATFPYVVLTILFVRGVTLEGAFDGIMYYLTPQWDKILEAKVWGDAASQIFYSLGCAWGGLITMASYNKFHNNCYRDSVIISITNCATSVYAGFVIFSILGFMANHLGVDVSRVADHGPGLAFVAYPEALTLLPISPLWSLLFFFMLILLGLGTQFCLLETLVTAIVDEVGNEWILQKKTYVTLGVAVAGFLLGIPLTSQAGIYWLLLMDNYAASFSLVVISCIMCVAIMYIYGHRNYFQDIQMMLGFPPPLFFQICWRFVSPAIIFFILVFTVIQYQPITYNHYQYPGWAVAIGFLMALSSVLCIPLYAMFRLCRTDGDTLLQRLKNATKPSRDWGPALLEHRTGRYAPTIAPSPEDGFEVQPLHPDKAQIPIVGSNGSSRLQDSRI
protocol.summary: GlyT1 [14C]-glycine uptake inhibition in human placental choriocarcinoma (JAR) cells
Type: cell-based
measurement.parameters: inhibition of specific [14C]-glycine uptake; cells endogenously expressing GlyT1; values in nM; read-out: Potency (IC50)
The reader will find reported IC50 values listed item by item below.
parameter.measured: IC50 (nM)

CCCS(=O)(=O)N1CC(C(NC(=O)c2ccc(Cl)cc2Cl)c2ccccc2)C1 (stereo not shown) [Compound 3a] :: 730
Cn1cnc(S(=O)(=O)N2CC(C(NC(=O)c3ccc(Cl)cc3Cl)c3ccccc3)C2)c1 (single isomer, unassigned) [Compound 3b-2] :: 627
CC(C)CC(NC(=O)c1ccc(Cl)cc1Cl)C1CN(S(=O)(=O)c2cn(C)cn2)C1 (stereo not shown) [Compound 10f] :: 581
Cn1cnc(S(=O)(=O)N2CC(C(NC(=O)c3ccc(Cl)cc3Cl)c3cccs3)C2)c1 (stereo not shown) [Compound 10c] :: 40
CCCS(=O)(=O)N1CC(C(NC(=O)c2ccc(Cl)cc2Cl)c2ccccc2)C1 (single isomer, unassigned) [Compound 3a-2] :: 627
Cn1cnc(S(=O)(=O)N2CC(C(NC(=O)c3ccccc3Cl)c3ccccn3)C2)c1 (stereo not shown) [Compound 10g] :: 356
Cn1cnc(S(=O)(=O)N2CC(C(NC(=O)c3ccc(F)cc3F)c3ccccc3)C2)c1 (stereo not shown) :: 454

---

The reader will find reported IC50 values listed item by item below.
study.target: GlyT1 (Homo sapiens, UniProt P48067)
Construct: Human placental choriocarcinoma cells endogenously expressing GlyT1; endogenous in cells; host or cells: JAR human placental choriocarcinoma cells
protocol.summary: GlyT1 [14C]-glycine uptake inhibition in human placental choriocarcinoma (JAR) cells
Format: cell-based
measurement.parameters: inhibition of specific [14C]-glycine uptake; cells endogenously expressing GlyT1; values given in μM; read-out: Potency (IC50)
parameter.measured: IC50 (µM)

Cn1cnc(S(=O)(=O)N2CC(C(NC(=O)c3ccc(Cl)cc3Cl)C3CCCC3)C2)c1 (stereo not drawn) [Compound 10e] :: 1.6
Cn1cnc(S(=O)(=O)N2CC(C(NC(=O)c3ccccc3F)c3ccccc3)C2)c1 (stereo not drawn) [Compound 9e] :: 1.1
Cn1cnc(S(=O)(=O)N2CC(C(NC(=O)c3cc(Cl)cc(Cl)c3)c3ccccc3)C2)c1 (stereo not drawn) [Compound 9j] :: 1.5
Cn1cnc(S(=O)(=O)N2CC(C(NC(=O)c3ccc(F)c(F)c3)c3ccccc3)C2)c1 (stereo not drawn) [Compound 9i] :: 1

---

study.target: GlyT1 (Homo sapiens)
Construct: Human placental choriocarcinoma cells endogenously expressing GlyT1; endogenous in cells; host or cells: JAR human placental choriocarcinoma cells
Sequence (P48067 1-706): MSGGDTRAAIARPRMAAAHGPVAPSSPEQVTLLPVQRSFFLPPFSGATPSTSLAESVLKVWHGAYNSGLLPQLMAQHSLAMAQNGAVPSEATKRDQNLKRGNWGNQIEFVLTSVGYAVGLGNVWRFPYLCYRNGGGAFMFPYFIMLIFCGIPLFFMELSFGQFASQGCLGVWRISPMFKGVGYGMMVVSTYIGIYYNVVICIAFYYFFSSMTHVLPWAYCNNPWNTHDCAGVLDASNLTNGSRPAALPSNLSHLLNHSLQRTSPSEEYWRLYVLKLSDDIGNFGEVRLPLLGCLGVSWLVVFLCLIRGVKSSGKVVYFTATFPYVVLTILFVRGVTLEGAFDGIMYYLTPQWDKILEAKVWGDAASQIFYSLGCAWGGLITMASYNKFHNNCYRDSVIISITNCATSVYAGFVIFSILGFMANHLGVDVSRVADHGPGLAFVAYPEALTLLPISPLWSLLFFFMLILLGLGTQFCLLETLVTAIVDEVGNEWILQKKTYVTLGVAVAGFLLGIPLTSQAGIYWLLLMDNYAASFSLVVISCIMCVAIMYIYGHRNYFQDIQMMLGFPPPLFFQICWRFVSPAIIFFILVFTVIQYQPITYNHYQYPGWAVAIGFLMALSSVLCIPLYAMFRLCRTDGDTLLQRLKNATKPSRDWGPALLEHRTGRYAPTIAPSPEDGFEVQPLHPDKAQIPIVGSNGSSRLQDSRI
protocol.summary: GlyT1 [14C]-glycine uptake inhibition in human placental choriocarcinoma (JAR) cells
Assay type: cell-based
measurement.parameters: inhibition of specific [14C]-glycine uptake; cells endogenously expressing GlyT1; value printed in pM; read-out: Potency (IC50)
parameter.measured: IC50 (pM)

Cn1cnc(S(=O)(=O)N2CC(C(NC(=O)c3ccc(Cl)cc3Cl)c3ccccc3)C2)c1 (single isomer, unassigned) :: 29

---

The reader will find reported IC50 values listed item by item below.
study.target: GlyT1 (Homo sapiens)
Construct: Human placental choriocarcinoma cells endogenously expressing GlyT1; endogenous in cells; host or cells: JAR human placental choriocarcinoma cells
protocol.summary: GlyT1 [14C]-glycine uptake inhibition in human placental choriocarcinoma (JAR) cells
Type: cell-based
measurement.parameters: inhibition of specific [14C]-glycine uptake; cells endogenously expressing GlyT1; values in nM; read-out: Potency (IC50)
parameter.measured: IC50 (nM)

Cn1cnc(S(=O)(=O)N2CC(C(NC(=O)c3ccc(Cl)cc3)c3ccccn3)C2)c1 (centres unmarked) [Compound 10i] :: 940
Cn1cnc(S(=O)(=O)N2CC(C(NC(=O)c3ccccc3C(F)(F)F)c3ccccn3)C2)c1 (centres unmarked) [Compound 10h] :: 256
CC(C)C(NC(=O)c1ccc(Cl)cc1Cl)C1CN(S(=O)(=O)c2cn(C)cn2)C1 (centres unmarked) [Compound 10a] :: 394
Cn1cnc(S(=O)(=O)N2CC(C(NC(=O)c3ccccc3C(F)(F)F)c3ccccc3)C2)c1 (centres unmarked) :: 101
CCCC(NC(=O)c1ccc(Cl)cc1Cl)C1CN(S(=O)(=O)c2cn(C)cn2)C1 (centres unmarked) [Compound 10b] :: 185
Cn1cnc(S(=O)(=O)N2CC(C(NC(=O)c3cccnc3Cl)c3ccccc3)C2)c1 (centres unmarked) :: 718
Cn1cnc(S(=O)(=O)N2CC(C(NC(=O)c3ccc(Cl)cc3)c3ccccc3)C2)c1 (centres unmarked) :: 334
Cn1cnc(S(=O)(=O)N2CC(C(NC(=O)c3ccc(Cl)c(Cl)c3)c3ccccc3)C2)c1 (centres unmarked) :: 446

---

The reader will find reported IC50 values listed item by item below.
study.target: GlyT1 (Homo sapiens)
Construct: Human placental choriocarcinoma cells endogenously expressing GlyT1; endogenous in cells; host or cells: JAR human placental choriocarcinoma cells
protocol.summary: GlyT1 [14C]-glycine uptake inhibition in human placental choriocarcinoma (JAR) cells
Format: cell-based
measurement.parameters: inhibition of specific [14C]-glycine uptake; cells endogenously expressing GlyT1; values in nM; read-out: Potency (IC50)
parameter.measured: IC50 (nM)

Cn1cnc(S(=O)(=O)N2CC(C(NC(=O)c3ccc(Cl)cc3Cl)c3ccccc3)C2)c1 (stereo not shown) [Compound 3b] :: 39
Cn1cnc(S(=O)(=O)N2CC(C(NC(=O)c3c(F)cccc3F)c3ccccc3)C2)c1 (stereo not shown) :: 439
Cn1cnc(S(=O)(=O)N2CC(C(NC(=O)c3ccc(Cl)cc3Cl)C3CC3)C2)c1 (stereo not shown) [Compound 10d] :: 253
Cn1cnc(S(=O)(=O)N2CC(C(NC(=O)c3ccccc3Cl)c3ccccc3)C2)c1 (stereo not shown) :: 133
